Catalogue of melting point readings, one per entry.
Reported metric: melting point

> print(dat)
                                    compound  reported.result
 1  CC(C#N)(CO)NS(=O)(=O)Cc1ccccc1 (stereo not given)    153 to 155 °C
 2     CN1C(=O)C(Br)=C(c2cn(C)c3ccccc23)C1=O    155 to 158 °C
 3  COCC1(C)Oc2ccccc2C(n2ccccc2=O)C1O (stereo not given)    244 to 246 °C
 4  Cc1ccc(S(=O)(=O)NC2N=C(c3ccccc3F)c3ccccc3NC2=O)cc1 (racemic)    215 to 216 °C
 5                O=C(CO)c1ccc(Oc2ccccc2)cc1      67 to 69 °C
 6            O=C(O)c1ccc(NCc2ccc(Cl)cc2)cc1    206 to 208 °C
 7            CCN(CC)C(=O)COC(=O)c1ccc(N)cc1    135 to 136 °C
 8  NS(=O)(=O)c1cnc(-c2cn(-c3cc(C(F)(F)F)cc(-c4ccc(C(F)(F)F)cc4)n3)cn2)s1         > 266 °C
 9  O=C(CCCN1CCC(NC(=O)c2ccccc2)CC1)c1ccccc1    143 to 144 °C
10  CCCOCCOC(=O)C1=C(C)NC(C)=C(C(=O)C(C)S(=O)(=O)NC)C1c1cccc([N+](=O)[O-])c1 (stereo not given)    120 to 123 °C
11                Cc1cc(C(C)(C)C)cc(C=NO)c1O    107 to 108 °C
12  CC(=O)Oc1ccccc1NC(=O)c1cc(Cl)c(OC(C)=O)c(Cl)c1    154 to 156 °C
13  Cn1c(=O)c2c(ncn2CCC(O)N2CCN(C(=O)c3ccco3)CC2)n(C)c1=O (stereo not given)    161 to 163 °C
14          O=CN1CCN(c2ccnc(Oc3ccccc3)n2)CC1    149 to 151 °C
15  O=C1c2ccccc2C(=O)N1CCCCCCSc1ccc2ccccc2c1    109 to 110 °C
16  CC(=O)OCC1OC(n2cc(Cc3ccc(Br)s3)c3c(Cl)cccc32)C(OC(C)=O)C(OC(C)=O)C1OC(C)=O (stereo not given)    185 to 187 °C
17  CCCn1c(=O)c2c(nc(/C=C/c3ccc(Cl)c(Cl)c3)n2C)n(CCC)c1=O    125 to 136 °C
18         CCCCCCCCCCCCN1C(C)(C)CC(O)CC1(C)C      41 to 42 °C
19  OCCc1nccn1CCCCc1ccc(OCc2coc(/C=C/c3ccc(Br)cc3)n2)cc1    149 to 150 °C
20  CC(C)(Oc1ccc(CCC(=O)c2ccc(-c3ccc(OC(F)(F)F)cc3)s2)c(Cl)c1Cl)C(=O)O    135 to 136 °C

* * *

Reported metric: melting point

> print(dat)
                                   molecule  reported.metric  reported.result
1        c1cc2c(cn1)ncn2CCCCc1nnnn1C1CCCCC1    melting point      93 to 95 °C
2                  COC(=O)Cc1csc2c(O)cccc12    melting point    147 to 148 °C
3  COc1cc(C(=O)N2CCN(C(=O)OC(C)(C)C)C(C(=O)N(C)C)C2)cc(OC)c1OC (centres undefined)    melting point    146 to 147 °C
4  N#Cc1ccc(NC(=O)c2cccc(S(=O)(=O)N3CCOCC3)c2)c(-c2nnn[nH]2)c1    melting point    230 to 232 °C
5  O=C(O)c1ccnc(-c2cccc3cc(Cc4cccc(C(F)(F)F)c4)sc23)c1    melting point    231 to 232 °C
6  CC(C)C[C@H](NC(=O)[C@@H](N)Cc1c[nH]cn1)[C@@H](O)c1nccs1    melting point    118 to 126 °C
7    O=c1[nH][nH]c2c1c(O)nc1cc(Cl)c(Cl)cc12    melting point         > 350 °C
8  CC(C)(C)OC(=O)c1cc(OCc2ccccc2)c(C(=O)c2c(OCc3ccccc3)cccc2C(=O)O)c(OCc2ccccc2)c1    melting point    151 to 156 °C
9  CCNc1cccc2c(S(=O)(=O)Nc3ccc(Cl)nn3)cccc12    melting point    166 to 168 °C

// provenance: a melting point compilation (Tetko et al.; mined from patent text by program, amines drawn as free bases though some values may be those of a salt)
